# Test system: Malme-3M
# assay.info: Growth inhibition of human Malme-3M cells assessed as cell growth at 10 uM incubated for 48 hrs by sulforhodamine B assay relative to control
# Type: functional
# assay.conditions: read-out: Activity
quantity.name: growth at 10 µM (%)
Field format: number, assumed %, no unit text.

// worked examples, growth at 10 µM included
| compound.string | quantity.name | result.value |
| --- | --- | --- |
| COc1ccc(S(=O)(=O)n2ccc(-c3ccc4c(c3)CCC(C)(C)O4)n2)cc1 | growth at 10 µM | 110 |
| O=S(=O)(c1ccc(Br)cc1)n1ccc(-c2ccc(OCCCF)cc2)n1 | growth at 10 µM | 89 |
| Cc1cc(C)c(NC(=O)c2sc3nc4c(cc3c2N)CN(Cc2ccccc2)CC4)c(C)c1 | growth at 10 µM | 28 |
| CC1(C)CCc2cc(-c3ccn(S(=O)(=O)c4ccc(C(C)(C)C)cc4)n3)ccc2O1 | growth at 10 µM | 105 |
| COc1ccc(S(=O)(=O)n2ccc(-c3ccc(OC(C)C)cc3)n2)cc1 | growth at 10 µM | 107 |
| CCOc1ccc(-c2cc(N)n(S(=O)(=O)c3ccc(OC)cc3)n2)cc1 | growth at 10 µM | 114 |
| COc1ccc(-c2ccn(S(=O)(=O)c3ccc(C)cc3)n2)cc1 | growth at 10 µM | 88.4 |
| CN1CCc2nc3sc(C(N)=O)c(N)c3c(-c3cccs3)c2C1 | growth at 10 µM | 16 |
| CC1(C)CCc2cc(-c3ccn(S(=O)(=O)c4ccc(C(F)(F)F)cc4)n3)ccc2O1 | growth at 10 µM | 97.3 |
| COc1cccc(NC(=O)c2sc3nc4c(cc3c2N)CN(Cc2ccccc2)CC4)c1 | growth at 10 µM | 12 |

### Prompt Recorded growth at 10 µM of Cc1ccc(NC(=O)c2sc3nc4c(cc3c2N)C(=O)CCC4)cc1C , please.
### Response 47

### Prompt Consider the molecule shown here: Nc1c(C(=O)Nc2ccccc2)sc2nc3c(cc12)CN(Cc1ccccc1)CC3 What is its recorded growth at 10 µM?
### Response 23

Reference source: ChEMBL document CHEMBL4715736
